Below, each entry is listed alongside its reported MIC90.
- Tested on: Mycobacterium tuberculosis
- PROCEDURE_TEXT: Antibacterial activity against non-replicating form of Mycobacterium tuberculosis MC2 6220 assessed as growth inhibition after 3 days by high-throughput screening assay
- Type: functional
- MEASUREMENT_CONTEXT: MC2 6220, 72 h
PARAMETER: MIC90

>>> reading("CCCc1cc(=O)oc2c3c(cc(OCCOC(=O)c4cnccn4)c12)O[C@H]([N+](=O)[O-])[C@H]3O (racemic)")
"< 1 µg/mL"
>>> reading("CC1(C)C=Cc2c(c3c(-c4ccccc4)cc(=O)oc3c3cc([N+](=O)[O-])oc23)O1")
"19 µg/mL"
>>> reading("CCCc1cc(=O)oc2cc(OC(=O)/C=C/c3ccccc3)c3c(c12)OC(C)(C)C=C3")
"> 21 µg/mL"
>>> reading("CCCc1cc(=O)oc2cc(N3CCN(C(=O)Nc4ccc(C#N)cc4)CC3)c3c(c12)OC(C)(C)C=C3")
"> 25 µg/mL"
>>> reading("CCCc1cc(=O)oc2cc(NC(C)=O)c3c(c12)OC(C)(C)C=C3")
"> 16 µg/mL"
>>> reading("CCCc1cc(=O)oc2cc(NCc3ccccc3)c3c(c12)OC(C)(C)C=C3")
"> 19 µg/mL"
>>> reading("Cc1c(Cc2ccccc2)c(=O)oc2c1c1c(c3oc([N+](=O)[O-])cc32)C=CC(C)(C)O1")
"> 21 µg/mL"

Taken from ChEMBL document CHEMBL3259717.
